src = paper PMC12416549

Biological target: T1, TNFR1 (Homo sapiens, UniProt P19438)
T1 chain: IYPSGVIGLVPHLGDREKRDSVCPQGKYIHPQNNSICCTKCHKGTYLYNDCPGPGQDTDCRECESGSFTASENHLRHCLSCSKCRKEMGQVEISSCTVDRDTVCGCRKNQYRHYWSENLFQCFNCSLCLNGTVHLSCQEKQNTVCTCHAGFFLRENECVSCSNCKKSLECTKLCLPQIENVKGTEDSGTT
Test: yeast display SC50
Below, each entry is listed alongside its reported apparent Kd (screen).
// units = nM; emit number, no label

# example entries with known answers
[[record]]
binder = "L41H (designed binder) MTLQELLREEALRRAEAEAFRYALELLAEKFPEQKEYLLDHAEEIESQIRSLSGVDVEDVRKFLDKEWAWVKELLAEHPAELAEVEAARAARLAELRAEVEAKVAA"
property_name = "apparent Kd (screen)"
readout_value = 13.8

[[record]]
binder = "L24M (designed binder) MTLQELLREEALRRAEAEAFRYAMELLAEKFPEQKEYLLDLAEEIESQIRSLSGVDVEDVRKFLDKEWAWVKELLAEHPAELAEVEAARAARLAELRAEVEAKVAA"
property_name = "apparent Kd (screen)"
readout_value = 0.718

[[record]]
binder = "A88D (designed binder) MTLQELLREEALRRAEAEAFRYALELLAEKFPEQKEYLLDLAEEIESQIRSLSGVDVEDVRKFLDKEWAWVKELLAEHPAELAEVEADRAARLAELRAEVEAKVAA"
property_name = "apparent Kd (screen)"
readout_value = 0.593


Proceeding to the next binder to report its apparent Kd (screen).
Item: E58L (designed binder) MTLQELLREEALRRAEAEAFRYALELLAEKFPEQKEYLLDLAEEIESQIRSLSGVDVLDVRKFLDKEWAWVKELLAEHPAELAEVEAARAARLAELRAEVEAKVAA | apparent Kd (screen): 0.446
